- System: ACHN renal
- measurement notes: NCI tumour cell line growth inhibition, 48 h
Quick reference: GI50 of the listed items.

Study these solved cases before continuing.
compound	GI50
COc1ccc(N2CCN(C(=O)c3ccccc3Nc3ccnc(C(F)(F)F)c3)CC2)cc1	> 100 µM
CN(C)CCCNc1nn2c(=O)c3ccccc3nc2c2ccccc12	3.75 µM
CC(=O)OCC1OC(OC2C(COC(C)=O)OC(OCCC[S-])C(OC(C)=O)C2OC(C)=O)C(OC(C)=O)C(OC(C)=O)C1OC(C)=O.[Au+].c1ccc(CN2[CH-]N(Cc3ccccc3)C(c3ccccc3)=C2c2ccccc2)cc1 (configuration not stated)	2.9 µM
C#CCN1C(=O)/C(=c2\sc3n(c2=O)C2C(NN=3)N(CC)C(=O)N2CC)c2ccccc21 (configuration not stated)	0.65 µM

Exercise: Query the reported GI50 for ACHN renal; item: `CC1(C)N=C(N)N=C(N)N1c1cccc(C#N)c1`
Solution: 4.09 µM

Exercise: Query the reported GI50 for ACHN renal; item: `CCCCCCCCCCCCn1c(C)nc2ccccc21`
Solution: 13.2 µM

Exercise: Query the reported GI50 for ACHN renal; item: `CN(C)c1ccc(/C=C2\C[C@H]3[C@@H]4CC=C5C[C@@H](N6CCCC6)CC[C@]5(C)[C@H]4CC[C@]3(C)[C@H]2O)cc1`
Solution: 1.82 µM

Exercise: Query the reported GI50 for ACHN renal; item: `COc1ccc(-c2ccc3c(NC(=O)C4CC4)n[nH]c3n2)cc1`
Solution: > 25 µM

Exercise: Query the reported GI50 for ACHN renal; item: `S=c1nc(-c2ccccc2)oc(=NC2CCCCC2)n1C1CCCCC1`
Solution: 4.14 µM

Exercise: Query the reported GI50 for ACHN renal; item: `O=C1NC(=O)/C(=C/C=C/c2ccccc2)S1`
Solution: 0.655 µM

Exercise: Query the reported GI50 for ACHN renal; item: `COc1ccc(OC)c(-c2nc3sccn3c2/C=C2/C(=O)Nc3ccc(Cl)cc32)c1`
Solution: 30.8 µM

Exercise: Query the reported GI50 for ACHN renal; item: CN1/C(=C\C(I)C(I)C2=[N+](C)c3ccccc3C2(C)C)C(C)(C)c2ccccc21 (configuration not stated)
Solution: 0.665 µM
